Kindly state TGI for each of the entries shown.
System: NCI-H226 lung
Assay: NCI tumour cell line growth inhibition, 48 h
Value expressed in µM; do not type the unit.

Field TGI (entry "C#CC1=CC(=O)C(OC)=CC1=O" ) reads 42

compound CC(=O)O[C@H]1CC2C(C3CCC(C(C)CCC(N)=O)[C@]31C)[C@H](OC(C)=O)C[C@@H]1CC3(CC[C@]21C)OOC1(CC[C@]2(C)C4C[C@H](OC(C)=O)[C@]5(C)C(C(C)CCC(N)=O)CCC5C4[C@H](OC(C)=O)C[C@@H]2C1)OO3 (stereo not given in full) , TGI observed: 2.79

// "ClCc1ccccc1Cn1cnc2ncnc(Cl)c21" : TGI value = 7.89

Record "CCCc1cc(=O)n2c(C(=O)Nc3ccc(F)cc3)c(C(=O)Nc3ccc(F)cc3)sc2n1" . Reported TGI: 16.3

###

System: RXF 393 renal
Assay: NCI tumour cell line growth inhibition, 48 h
Readout name: TGI (µM)
All answers are understood in µM, so give the number only.

The recorded TGI with RXF 393 renal for CCOC1=C(c2ccccc2)N2CCCCC2O1 (stereo not drawn) was 37.4

Lab note: compound CCN(CC)CCCC(C)Nc1cc(-c2cccc(OC(F)(F)F)c2)nc2ccc(N3CCCC3)cc12 (stereo not drawn) tested on RXF 393 renal; recorded TGI was 89.1

Here "Clc1ccc(-c2c3ccc(=[N+]4CCCCC4)cc-3oc3cc(N4CCCCC4)ccc23)cc1" was tested on RXF 393 renal, and its TGI came to 0.279

Fill in: RXF 393 renal TGI for CCCCCCCCC#CCCCCCCCCCC[C@@H]1C(=O)O[C@H](C)[C@@H]1O (tested in a mixture with another compound) = 28.4

Known value: RXF 393 renal TGI of the compound "C#CC1=CC(=O)C(OC)=CC1=O" equals 30.1

// assay RXF 393 renal, entry "COc1ccc(-c2cncn2-c2cc(OC)c(OC)c(OC)c2)cc1" , TGI value = 21.3

# value of TGI, RXF 393 renal, item "CCCCC#Cc1c(I)n(C)c(=O)[nH]c1=O" = 5.91

Response field TGI (RXF 393 renal) for item "CCCCCCSSC(=S)N(CC)CC" : 32.9

Observed TGI, RXF 393 renal, "CN=C1C=CC(=C(c2ccc(N(C)C)cc2)c2ccc(N(C)C)cc2)C=C1" : 0.583

Bench note, RXF 393 renal: entry "O=c1[nH]nc(Cc2ccc(Cl)cc2)n1/N=C/c1ccc([N+](=O)[O-])o1" , its TGI = 4.8

Item: "O=C(NCC(F)(F)F)Nc1cccc(-c2cnc3cc(-c4ccc(F)cc4)ccn23)c1" | System: RXF 393 renal | TGI: 6.36

###

Record form. Attribute: TGI. Fill in for each entry.
Test system: SK-MEL-28 melanoma
Assay: NCI tumour cell line growth inhibition, 48 h

The value of TGI measured for the compound "O=C(/C=C/C=C/c1ccccc1)c1ccco1" turned out to be 31.6 µM

Per the records, this compound ( COc1ccc2cc(C(C)C(=O)N3C(=O)OCC3(C)C)ccc2c1 (configuration not stated) ) has TGI equal to > 100 µM

Measured TGI, C=C1C(O)C2CC(C)(CO)C(=O)C2=C(CC(C)C)C12CC2 (configuration not stated) : > 100 µM

TGI reported for this compound "COc1cc2nc(-c3cccs3)nc(Nc3cccc(Cl)c3)c2cc1OC" : > 100 µM

Recorded result, "C#CC1=CC(=O)C(OC)=CC1=O" , TGI: > 100 µM

The compound identified as "Cc1cc(S(=O)(=O)/N=C(/NN)Nc2ccc(Cl)cc2)c(S)cc1Cl" registered its TGI at 60.3 µM

// TGI lookup, compound = "COc1cc(N(CCC#N)CCC#N)ccc1/C=N\NC(=O)c1ccc(C)cc1" , result: > 100 µM

The reported TGI of the compound "CCC[CH2][Sn]([CH2]CCC)([S]C#N)[S]C#N" was 2.15 µM

Sample "CCOC(=O)/C(=C/c1cccc(Cl)c1)N(CC)CC" ; TGI observed: > 100 µM

Notebook: CCOC1=C(c2ccccc2)N2CCCCC2O1 (configuration not stated) , TGI read as > 63.2 µM

Short answer for "Cc1ccc(N=C[N-]c2ccc(C)cc2)cc1.Cc1ccc(N=C[N-]c2ccc(C)cc2)cc1.O=C([O-])C(F)(F)F.O=C([O-])C(F)(F)F.[OH3+].[OH3+].[Rh+2].[Rh+2]" : TGI was 39.2 µM

"O=[N+]([O-])/C(C(Cl)=C(Cl)Cl)=C(/Nc1cccc2cccnc12)n1nnc2ccccc21" yielded TGI of 33.5 µM

Notebook: "CCN(CC)C(=O)CCN1CC1" , TGI read as > 10 µM

Kindly note the recorded TGI for "C1CN(c2nnc(N3CCC3)nn2)C1" , which is > 68.3 µM

Memo: "O=C1/C(=C/c2ccc(F)cc2)CN(C(=O)CCN2CCC(=NO)CC2)C/C1=C\c1ccc(F)cc1" , reported TGI: 4.1 µM

So, O=C(O)c1cccc(NC(C(=O)c2ccccc2)c2ccccc2)c1 (configuration not stated) ? Its TGI was > 100 µM

Query "CC(C)c1cccc(C(C)C)c1N1C(=O)C(=O)C(c2nc3ccccc3o2)C(=O)C1=O" yields TGI of > 100 µM

"COc1ccccc1NC(=O)CC(=O)NN" yielded TGI of > 100 µM

The measured TGI associated with "O=[Se](O)O" reads 26.8 µM

Kindly note the recorded TGI for CCCCCC(O)C(O)CCC[C@H](O)[C@H]1CC[C@H]([C@H]2CC[C@H]([C@H](O)CCCCCCCCCCCCC3=C[C@H](C)OC3=O)O2)O1 (some centres not stated) , which is 73 µM

In plain terms, "Cc1cc(N(CCOS(C)(=O)=O)CCOS(C)(=O)=O)ccc1C(=O)O" has a documented TGI of > 100 µM

response.value for "[N-]=[N+]=NCCCn1c2c(c3ccc([N+](=O)[O-])cc3c1=O)C(=O)c1cc(Br)ccc1-2" (field: TGI) = > 100 µM

CC1CCC2(OC1)OC1C(O)C3C4CCC5CC(OC6OC(CO)C(OC7OC(CO)C(O)C(OC8OCC(O)C(O)C8O)C7OC7OC(CO)C(O)C(OC8OC(CO)C(O)C(O)C8O)C7O)C(O)C6O)C(O)CC5(C)C4CCC3(C)C1C2C (configuration not stated) yielded TGI of > 100 µM

GET /value?item= "O=C(C(=O)n1ncc(Cl)c(Cl)c1=O)n1ncc(Cl)c(Cl)c1=O" &field=TGI returns 59.3 µM

Given item "CCCCN(C)/N=N/c1nc[nH]c1C(N)=O" , the value recorded as its TGI is > 100 µM

Please fill in: TGI reported for "CN=C1C=CC(=C(c2ccc(N(C)C)cc2)c2ccc(N(C)C)cc2)C=C1" = 2.07 µM

TGI in this record for "O=C(NCCCc1cn[nH]c1)c1ccc(-c2ccncc2)c(C#Cc2ccc(F)cc2)c1" : > 100 µM

Data point: "CC1=C(SC#N)S(=O)(=O)N(c2ccccc2)C(C)=C1SC#N" ; TGI = > 100 µM

Value of TGI reported for the compound "COc1ccc(/C=C/c2c(C(=O)/C=C/c3ccc(C(F)(F)F)cc3)c(C)nc3ccccc23)cc1" is 3.47 µM

// sample O=C1CSC(c2ccccc2Cl)N1c1nnc(Cn2cnnc2)o1 (configuration not stated) , its TGI was 45.8 µM

The compound listed as CC(C)(C)C1=C(Br)C(O)(C(C)(C)C)OP1(=O)c1ccccc1 (configuration not stated) shows TGI equal to > 100 µM

"CCOC(=O)c1cc(-c2ccc(-c3cc(C(=O)OCC)c(C#N)c(N)c3C#N)cc2)c(C#N)c(N)c1C#N" has a reported TGI of > 100 µM

TGI recorded for this compound, "CCNc1cc2c3c(c1)CCN3CCC2" , is > 10 µM

// TGI value for "O=C(OCc1ccccc1)N1CCNCCNCCN(C(=O)OCc2ccccc2)CCNCC1" : 29.1 µM

The value of TGI measured for the compound "Cc1ccc(NC(=O)C(=O)CC(=O)c2c(C)n([O-])c3ccccc3[n+]2=O)cc1C" turned out to be > 100 µM

The measured TGI associated with "Cc1c2cccc-2ccc2c3ccccc3n(C(=O)c3ccc(Cl)cc3)c12" reads > 100 µM

Kindly note the recorded TGI for COc1cc(C2C3=C(COC3=O)N(CCO)c3cc4c(cc32)OCCO4)cc(OC)c1OC (configuration not stated) , which is > 50 µM

Value of measured TGI for the entry "CCCc1cc(=O)n2c(C(=O)Nc3ccc(F)cc3)c(C(=O)Nc3ccc(F)cc3)sc2n1" : > 160 µM

Field TGI (entry COc1ccccc1S(=O)(=O)Nc1ccc2c3c(cc(CCC(=O)NCCCCNc4cccc5c4C(=O)N(C4CCC(=O)NC4=O)C5=O)cc13)C(=O)N2C (configuration not stated) ) reads > 100 µM

Looking up "CCCCCCSSC(=S)N(CC)CC" , I see its TGI listed as 61.4 µM

The compound identified as "S=C1Cc2c(-c3ccc(Br)cc3)cc(-c3ccccc3)nc2-c2ccccc2N1" registered its TGI at 27.3 µM

The compound identified as "NCCSCCC(=O)O" registered its TGI at > 71.8 µM
